Source of measurements: the supplement of paper PMC9170038

Each entry below carries its recorded apparent KD of MS2 coat protein.
System: MS2 coat protein
Test: apparent KD of MS2 coat protein; higher = weaker reporter binding
Conditions: Eterna round: R107; input ligand: theophylline 20 uM
Numeric answer only, unit µM assumed.

Here's what some known entries look like.
INSERT INTO results (seq, measure_name, value) VALUES
  ('CUAUAUAUAAGAAGGAGCGACAUGAGGAUCACCCAUGUCUACCACGUCGAAAGACGCUCAUGUCAGGUAGGUCGCUUAUAUAUAG [Astros-Eli-mod1]', 'apparent KD of MS2 coat protein', 0.155),
  ('UGCACUCAUGCGGCCGCCACUGUCGGCCGCCACUAAACAUGAGGAUCACCCAUGUAGGACCGGGACAGGACCGGGCAUGGGUGCU [TryBS - #DoubleAptamer 2]', 'apparent KD of MS2 coat protein', 0.0207),
  ('ACCUGUACGAAAAGUGCAGGACACGGAUAACGAGGACCGGUACGGCCGCCACUCGGAAUAACCUGAGGAUCACCCUGGUACCGUG [TrypAS 8 #AlternativeMS2 #Zipper #StaticStem]', 'apparent KD of MS2 coat protein', 0.024),
  ('GGACUAACCAGAAGGAGCGACACGCAGAAACUGCAAAUUCCUCCACACGAGGAUCACCCGUGUCAGGUAGGUCGCUGGUUAGUCG', 'apparent KD of MS2 coat protein', 0.0311),
  ('UCGACAAGAACAAUAAACAGCACUUGAGAAGGAGCGCGGAAAUCCGCAGGUAGGUCGCUCAUGUGUACAUGAGGAUCACCCAUGU [Inveonxeed]', 'apparent KD of MS2 coat protein', 0.0493),
  ('CCGCCUGCCUCACAUGAGGAUCACCCAUGUCGAGGACCGGUACGGCCGCCACUCGUCGUCGGUAAUACAGGCAUUGAAUAAUAUA [Vetire]', 'apparent KD of MS2 coat protein', 0.0148);

Prompt line: Any idea what apparent KD of MS2 coat protein came out for CUCUCAUGAACAUGAGGAUCACCCAUGUAACGAGGACCGGUACGGCCGCCACUCGAACGUGGAAACCAAUCGAGUGAGGUGGGAG [Tryp A Ex t5b] on MS2 coat protein?
Response line: 0.0984

Prompt line: Again, but for GUACACAUGAGGAUCACCCAUGUACUGGUACGAGGACCGGUACGGCCGCCACUCGCCGAGAUUCAUAACACAUCAGAAAGCUCAC [theeternabot_sameState_MS2_Trp_A_45]
Response line: 0.0276

Prompt line: Again, but for GUUGGUUUGCGAAGGAGCGGGUAUGUUGUCUACUUGAUCCUAACAUGAGGAUCACCCAUGUCCCAGGUAGGUCGCGCGGGCUUUG [12.aC]
Response line: 0.0639

Prompt line: Again, but for CGAAAGCAGUGAUCCAGCUUUCGCCUGGAAGGAGCGAGCGAAAGCUCAGGUAGGUCGCCAGAAACAUGAGGAUCACCCAUGUAAU [(A)''-(M)'-(A)'-(Arg1)-(Arg2)-(M1)-(M2)_Design8]
Response line: 0.082

Prompt line: Again, but for ACGUAAUGCAGAAGGAGCGUCUUAUGUAUACAUGAGGAUCACCCAUGUAAUAUGUGGUUGAGACAGGUAGGUCGCUGAAGUACGA [JR_SSArginiB_Sub009]
Response line: 0.0941

Prompt line: Again, but for ACCGCAUCCGUAUAGGAUGCGGCCCAUGAAGGAGCGUGGGAAACCACAGGUAGGUCGCAUGGAAAACAUGAGGAUCACCCAUGUG [Alien]
Response line: 0.442

====

System: MS2 coat protein
Assay: apparent KD of MS2 coat protein; designed switch direction (-1 OFF switch, 1 ON switch): -1; higher = weaker reporter binding
Conditions: input ligand: none
measure name: apparent KD of MS2 coat protein (nM)
Numeric answer only, unit nM assumed.

Here's what some known entries look like.
INSERT INTO measurements (seq, value) VALUES
  ('AGAUCACAUGAGGAUCACCCAUGUGAGGAUAUAGAUUCAAGAGCUUCGGCUCUACAGUCUAGAAGGCACUAUGA [EX1 #46] (Eterna round: R97, puzzle: Exclusion 1)', 25.7),
  ('GUCCUCUUGACAUGAGGAUCACCCAUGUUUUAUUUGUUAACUGAGGAUAUACUCUUAUUUUUUAUGUAGAAGGCAGUUUUGUUC [JR_ExcNG3_Sub023] (Eterna round: R96, puzzle: Exclusion NG 3)', 26.3),
  ('UAUUAUCAAGCAAGAUCCCACAUGAGGAUCACCCAUGUGCUCGUCUUAUUUCCGGCCUUAUUGGGCUCUCGUCUAAU [JR_STOV1_v2_Sub094] (Eterna round: R97, puzzle: Sensor, turn-off variant 1)', 33.5),
  ('CGUCAAGCUUCGGCAGGCAACAUGAGGAUCACCCAUGUCUGCGUUCGUCUUAACUGAUCUAGGGAUAGAUCGUGUGU [Eternabot (L1) Solution 49] (Eterna round: R97, puzzle: Sensor, turn-off variant 1)', 15.4),
  ('AUAAUGUGAGGAUAUCACGCCCAAAUAAAUGGGCGAAAUAAUGAGAAGGCACAUGAGGAUCACCCAUGUCCGAA [EX4 A.25] (Eterna round: R97, puzzle: Exclusion 4)', 33.5),
  ('GUCGUGCGGCUUUGCUGUACGAGUACAUGAGGAUCACCCAUGUAGGAUAUGGUUCGUUUUGCGUGCUAGAAGGGCGUGCGUUUU [Excl-NG3-LRO16] (Eterna round: R96, puzzle: Exclusion NG 3)', 22.1);

Prompt line: Quick one: apparent KD of MS2 coat protein of CCAAGAAUAGGAUAUACACCAUGUCAGCUUCUAUACAACGCACAUGAGGAUCACCCAUGUAGAAGGGUUCUCUC [Exclusion-2-#3] (Eterna round: R97, puzzle: Exclusion 2) ?
Response line: 433

Prompt line: Again, but for CGGUGUAACGUAGGAUAUCAGCGCAACUGACGAUGAGAAGGACGACAUGAGGAUCACCCAUGUGAUUUCUCAAUAUUAUACAUC [Prohibition 87 - Jieux - Exclusion NG 1] (Eterna round: R96, puzzle: Exclusion NG 1)
Response line: 74.5

Prompt line: Again, but for GUUGUUUAUGUAGGAUAUGCGAGGCGAGCCUAAGCAGAAGGACAUGAGGAUCACCCAUGUAUUGCGGUCUGCGUUCAGAUCGCU [salish99_ExNG1_r4_016] (Eterna round: R96, puzzle: Exclusion NG 1)
Response line: 26.9

====

Test system: MS2 coat protein
Experiment: apparent KD of MS2 coat protein; higher = weaker reporter binding
Conditions: Eterna round: R107; input ligand: arginine 13.2 mM
Each entry below carries its recorded apparent KD of MS2 coat protein.
Numeric answer only, unit nM assumed.

Prompt line: Any idea what apparent KD of MS2 coat protein came out for ACAUGAGGGCGAAGGAGCGCGAACAUGAGGAUCACCCAUGUGUAUGUAUGUUGUCAUGUAUCGCAGGUAGGUCGCGCUGUUACAU [Exclusion Arginine B] on MS2 coat protein?
Response line: 90.1

Prompt line: Again, but for GCUAGGUCUACGGCCGCCACUAGACGUGGGUUAAACAUGAGGAUCACCCAUGUGCUACAGGCGCAUAGGACCGGGUAGACCUAGC [SSTB NP+V+V2 #9 +-Same Structure]
Response line: 86.5

====

Test system: MS2 coat protein
Test: apparent KD of MS2 coat protein; designed switch direction (-1 OFF switch, 1 ON switch): -1; higher = weaker reporter binding
Conditions: Eterna round: R95; input ligand: none
measure name: apparent KD of MS2 coat protein

Here's what some known entries look like.
INSERT INTO assay_data (seq, value) VALUES
  ('AGUACUAACACGUAAGUGUUAGUACUAUAAGCUUGUGUUACAUGAGGAUCACCCAUGUCCUCAUAAGCUCGUCUUAA [Mat - Sensor v3 - Turn-off var 2 - D71] (puzzle: Sensor v3, turn-off variant 2)', '39.4 nM'),
  ('UGUACGAUGCGUGCUGACAUGCGUCGUGCAGCAGGUGGAACAUGAGGAUCACCCAUGUCCUCAUUUGCUCGUCUUAU [Mat - Sensor v3 - Turn-off var 2 - D21] (puzzle: Sensor v3, turn-off variant 2)', '34.6 nM'),
  ('AGGAAUGAAGGAUAUACAUGAGGAUCACCCAUGUAAAACAAGAGAUUUGAUGUAUAAUGUAGAAGGUCAAGAAG [JR_Exclusion3_Sub003] (puzzle: Exclusion 3)', '35.5 nM'),
  ('AGUAGUAGUAUCCGGUCCUACAUGAGGAUCACCCAUGUAGCUAGACGUGCACGCGAUGCUCGUCAGACUACCAGAUG [salish99_TOv1_r3_045] (puzzle: Sensor v3, turn-off variant 1)', '59.5 nM'),
  ('GAAAAGAGAGGAUAUACAAGAAGAAAAGAAAAGAAAAGAAAACAUGAGGAUCACCCAUGUAGAAGGCUCAAAAG [Default title] (puzzle: Exclusion 2)', '20.3 nM'),
  ('AAGAAACAUGAGGAUCACCCAUGUGAGGAUAUGAAUAAGAAAAGAAAAGAAAGAAGAAUCAGAAGGCACAAAGG [salish99-ex1_r3_045] (puzzle: Exclusion 1)', '37.2 nM'),
  ('UCAUGUAUGUAGGAUAUCGAUGUCGAAAGACAUCGAGAAGGACGUACAUGAGGAUCACCCAUGUAACUUGCAUG [Exclusion 6 - B - 11:a] (puzzle: Exclusion 6)', '12.9 nM'),
  ('GAAAAGGUAGGAUAUACGAAAAAAAAGGGUAGAAAAAAUACACAUGAGGAUCACCCAUGUAGAAGGACCAAAAG [salish99_ex2_r3_073] (puzzle: Exclusion 2)', '29.7 nM'),
  ('GAGGAGCAAGGAUAUACGAGGAUAUGGAAGGUUGGAGAGUGACAUGAGGAUCACCCAUGUAGAAGGUGCAAGGG [JR_Exclu2_Sub096] (puzzle: Exclusion 2)', '131 nM');

Then this sequence:
Prompt line: Quick one: apparent KD of MS2 coat protein of CAUGAUCUUCGGAUCAUGUACAUGAGGAUCACCCAUGUUACGAGCAGAUCUUCAUACAAGCUUUUUGCUCGUCUUAU [Sensor v3 - Turn-off variant 1 - 34] (puzzle: Sensor v3, turn-off variant 1) ?
Response line: 40.4 nM
